# maps each entry to its abundance fitness
B1: 1-phosphatidylinositol 4,5-bisphosphate phosphodiesterase gamma-2, residues 772 to 827; numbered along this chain, P16885 (parent)
chain: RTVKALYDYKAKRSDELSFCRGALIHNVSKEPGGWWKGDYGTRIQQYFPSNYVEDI

Variants of: B1
experimentSummary: abundance fitness (aPCA) (normalised: wild type 0, dead -1); higher = more abundant; growth selection in yeast, the domain comes from the species named
cond: Homo sapiens
endpointName: abundance fitness

1) R1C
-0.495
2) L17I
-0.154
3) D8E
-0.17
4) Y52A
-0.092
5) L17Q
-0.903
6) T42P
0.147
7) K4M
-0.127
8) G38W
-0.803
9) T2W
-0.883
10) Y52D
-0.98
11) N27E
-0.164
12) K4E
-0.216
13) N51T
-0.025
14) E16M
-0.633
15) G33A
-0.547
16) G34W
-0.445
17) R43T
-0.269
18) E54H
-0.272
19) Y7M
-0.059
20) Y7V
-0.2
21) I44F
-0.237
22) G38K
-1.01
23) G33W
-0.258
24) Y7R
0.169
25) Q46P
-0.866
26) Y9T
-0.931
27) E16R
-0.528
28) A5V
-0.965
29) H26D
-0.173
30) V28K
-0.623
31) R43Y
-0.228
32) F19E
-0.711
33) W35K
-0.58
34) A11T
-0.461
35) R43V
-0.349
36) F48S
-0.872
37) G41K
-0.012
38) C20G
-0.059
39) Q46Y
-0.223
